Each recorded value in this set is attributed to patent US9346798B2.

- system: Nav 1.5 (Homo sapiens (Human))
- Sequence (Q14524 whole entry): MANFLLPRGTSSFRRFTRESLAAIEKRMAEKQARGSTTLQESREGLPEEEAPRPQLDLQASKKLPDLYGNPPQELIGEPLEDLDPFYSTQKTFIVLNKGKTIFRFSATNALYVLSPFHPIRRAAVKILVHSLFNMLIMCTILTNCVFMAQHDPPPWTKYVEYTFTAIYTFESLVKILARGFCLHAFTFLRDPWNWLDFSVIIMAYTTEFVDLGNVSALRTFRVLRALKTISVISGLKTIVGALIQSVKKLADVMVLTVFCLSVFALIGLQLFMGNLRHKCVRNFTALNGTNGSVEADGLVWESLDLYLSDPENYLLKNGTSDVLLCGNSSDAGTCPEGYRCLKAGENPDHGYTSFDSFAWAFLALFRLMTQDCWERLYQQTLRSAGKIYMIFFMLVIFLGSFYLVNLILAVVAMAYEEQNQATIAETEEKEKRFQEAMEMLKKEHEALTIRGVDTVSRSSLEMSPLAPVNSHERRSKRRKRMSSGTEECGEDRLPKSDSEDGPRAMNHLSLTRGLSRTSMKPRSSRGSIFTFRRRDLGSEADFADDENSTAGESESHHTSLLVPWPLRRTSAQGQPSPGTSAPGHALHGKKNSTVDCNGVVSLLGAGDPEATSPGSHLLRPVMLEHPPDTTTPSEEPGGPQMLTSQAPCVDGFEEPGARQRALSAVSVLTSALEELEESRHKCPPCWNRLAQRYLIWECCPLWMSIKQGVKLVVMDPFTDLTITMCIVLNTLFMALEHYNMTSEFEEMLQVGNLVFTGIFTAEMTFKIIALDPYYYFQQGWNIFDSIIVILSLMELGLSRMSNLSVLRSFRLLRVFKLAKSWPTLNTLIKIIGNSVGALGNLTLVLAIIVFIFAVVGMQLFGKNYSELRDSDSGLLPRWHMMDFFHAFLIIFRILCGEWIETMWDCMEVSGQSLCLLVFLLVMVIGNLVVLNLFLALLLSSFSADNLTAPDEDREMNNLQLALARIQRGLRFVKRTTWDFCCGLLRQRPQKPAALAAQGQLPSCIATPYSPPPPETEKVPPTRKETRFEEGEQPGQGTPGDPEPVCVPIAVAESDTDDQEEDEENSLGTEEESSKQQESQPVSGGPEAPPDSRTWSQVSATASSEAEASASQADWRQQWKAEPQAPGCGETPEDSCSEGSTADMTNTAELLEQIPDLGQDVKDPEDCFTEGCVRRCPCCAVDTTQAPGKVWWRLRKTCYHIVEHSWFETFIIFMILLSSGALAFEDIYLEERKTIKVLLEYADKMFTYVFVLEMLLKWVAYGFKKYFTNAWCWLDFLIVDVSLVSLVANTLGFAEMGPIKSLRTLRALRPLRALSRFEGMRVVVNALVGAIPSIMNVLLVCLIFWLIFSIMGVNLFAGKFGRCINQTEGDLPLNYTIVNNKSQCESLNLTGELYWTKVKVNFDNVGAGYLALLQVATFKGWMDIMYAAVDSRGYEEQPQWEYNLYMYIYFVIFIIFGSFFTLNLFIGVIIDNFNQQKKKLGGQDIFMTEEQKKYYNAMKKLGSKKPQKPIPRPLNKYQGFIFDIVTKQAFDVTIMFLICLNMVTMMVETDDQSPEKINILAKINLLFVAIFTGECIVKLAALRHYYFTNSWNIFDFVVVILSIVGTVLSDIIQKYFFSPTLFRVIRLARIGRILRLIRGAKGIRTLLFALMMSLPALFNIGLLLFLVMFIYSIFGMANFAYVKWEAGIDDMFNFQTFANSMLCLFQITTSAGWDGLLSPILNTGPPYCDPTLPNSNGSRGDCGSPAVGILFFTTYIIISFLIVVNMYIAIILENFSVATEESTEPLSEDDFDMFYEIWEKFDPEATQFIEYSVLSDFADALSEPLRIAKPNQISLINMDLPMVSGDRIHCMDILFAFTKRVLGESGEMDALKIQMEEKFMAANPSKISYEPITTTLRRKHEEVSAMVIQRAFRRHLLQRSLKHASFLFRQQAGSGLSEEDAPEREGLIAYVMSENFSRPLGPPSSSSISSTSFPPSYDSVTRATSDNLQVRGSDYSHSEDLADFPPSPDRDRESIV
- method_description: Nav 1.5 in vitro assay, IonWorks Quattro (IWQ) population patch-clamp
- Type: cell-based
- condition_info: HEK 293 cells stably transfected with Nav 1.5; 26th pulse to -20 mV
property_label: IC50 (nM)

[
  {
    "compound": "Cn1ccc(NS(=O)(=O)c2ccc3c(c2)OCCN3c2ccc(C(F)(F)F)cc2Cl)n1",
    "modifier": ">",
    "readout_number": 10000
  },
  {
    "compound": "O=S(=O)(Nc1nccs1)c1ccc2c(c1)OCCN2c1ccc(C(F)(F)F)cc1CCO",
    "modifier": "=",
    "readout_number": 471
  },
  {
    "compound": "N#Cc1ccc(N2CCOc3cc(S(=O)(=O)Nc4nccs4)ccc32)c(Cl)c1",
    "modifier": ">",
    "readout_number": 10000
  },
  {
    "compound": "CC1COc2cc(S(=O)(=O)Nc3nccs3)ccc2N1c1ccc(C(F)(F)F)cc1C#N (racemic)",
    "modifier": "=",
    "readout_number": 1400
  }
]
